ASSAY SUMMARY: growth suppression of yeast trafficking mutant, preliminary HTS, modulators of trafficking downstream of Golgi apparatus project, 1536-format plate, OD 615 nm (AID 637); note: test concentration not given here
EXPERIMENTAL PARAMETERS: yeast transport mutant growth, absorbance 615 nm, 18 h; stronger effect = higher value
PARAMETER MEASURED: inhibition (%)
// note: answer is a bare numeric in %

Cc1nc(NC(=O)C2CC3CCCC(C2)C3=O)sc1C (stereo unspecified) has a reported inhibition of -6.39

CCOc1ccc(C2CC(=O)NC3=C2C(=O)CCC3)cc1Cl (stereo unspecified) has a reported inhibition of 0

O=C(O)CCCNS(=O)(=O)c1ccc(NCc2ccccc2)c(C(=O)O)c1 has a reported inhibition of 0.83

COCCn1nnnc1C(c1cc2cc(OC)ccc2[nH]c1=O)N1CCC(Cc2ccccc2)CC1 (stereo unspecified) has a reported inhibition of -2.38

COc1ccc(CCNC(=O)c2cnc3scc(C)n3c2=O)cc1OC has a reported inhibition of 2

Cc1cccc(N2CCN(C(=O)c3cc4c(=O)[nH]c5ccccc5c4n3C)CC2)c1C has a reported inhibition of 11

O=C(CCCCCN1C(=O)CCC1=O)NCc1ccccc1 has a reported inhibition of 4.13

O=S(=O)(NCCSc1ccccc1)c1cccs1 has a reported inhibition of -5.5

CCOc1ccc(CN2C(=O)c3ccccc3C2C(=O)NCc2cccnc2)cc1 (stereo unspecified) has a reported inhibition of -3.02

Cc1cccc(NC(=O)c2cc3n(n2)C(C(F)(F)F)CC(c2ccc4c(c2)OCO4)N3)c1 (stereo unspecified) has a reported inhibition of 1.61

O=C(c1ccccc1Cl)N1CCc2ccccc2C1 has a reported inhibition of -5.4

COc1cc(NC(=O)C(C)Oc2ccccc2)c(C(=O)O)cc1OC (stereo unspecified) has a reported inhibition of 2.13

COc1ccc(C(=O)Nc2ccc(C)cn2)c(OC)c1 has a reported inhibition of 0.98

Cc1ccc(S(=O)(=O)N2CCN(C(=O)CN3C(=O)NC4(CCOc5ccccc54)C3=O)CC2)cc1 (stereo unspecified) has a reported inhibition of -1.09

O=C(C1CCN(S(=O)(=O)N2CCC3(CC2)OCCO3)CC1)N1CCOCC1 has a reported inhibition of 7.38

CSc1ccc(S(=O)(=O)Nc2cccc(F)c2)cc1 has a reported inhibition of -5.33

O=C(O)C1CCCCC1C(=O)NCCc1ccccc1 (stereo unspecified) has a reported inhibition of 10.3

CCOC(=O)c1ccc(NC(=O)NC(C)C2CCCO2)cc1 (stereo unspecified) has a reported inhibition of -7.94

Cc1ccc(NC(=O)Nc2ccc3c(c2)N(C)C(=O)CS3)nc1 has a reported inhibition of -0.33

O=C(NCC(=O)N1CCC(N2CCCCC2)CC1)C1CCCCC1 has a reported inhibition of -4.43

Cc1ccc(CCNC(=O)CC2Oc3ccc(C)cc3NC2=O)cc1 (stereo unspecified) has a reported inhibition of -2.46

OCc1nc2ccccc2n1CC(O)Cn1ccc2ccccc21 (stereo unspecified) has a reported inhibition of 8.36

CNC(=O)Nc1cccc(C(F)(F)F)c1 has a reported inhibition of 0

Cc1cc(NC(=O)COc2cccc(Oc3ccccc3)c2)no1 has a reported inhibition of 3.33

CCCC(=O)N(Cc1cc2ccccc2[nH]c1=O)c1ccccc1OC has a reported inhibition of 12.3

COc1ccc(Cc2nn3c(-c4cc(OC)c(OC)c(OC)c4)nnc3s2)cc1 has a reported inhibition of 5.17

COc1ccc(N2C(=O)CC(NC3CC3)C2=O)cc1 (stereo unspecified) has a reported inhibition of -6

COC(=O)c1[nH]c2ccccc2c1NC(=O)CN1CCC(C(N)=O)(N2CCCCC2)CC1 has a reported inhibition of 0.49

CCn1cc(C(=O)N2CCCC2)c(=O)c2cc(S(=O)(=O)N3CCOCC3)ccc21 has a reported inhibition of -6.51

O=C(Nc1cccnc1N1CCOCC1)c1ccco1 has a reported inhibition of -4.67

O=C1CS/C(=N\C(=O)N2c3ccccc3Sc3ccccc32)N1 has a reported inhibition of 1.29

CCOc1ccc2[nH]c(=O)c(C(c3nnnn3CC3CCCO3)N3CCc4ccccc4C3)cc2c1 (stereo unspecified) has a reported inhibition of 2.62

CC(Oc1ccccc1)C(=O)N1CCCc2ccccc21 (stereo unspecified) has a reported inhibition of -4.33

Cc1cc(C)n(CCCNC(=O)c2ccc3c(c2)NC(=O)CS3)n1 has a reported inhibition of -1.48

CC1CCCCC1NC(=O)Cn1nnc(-c2ccc(Cl)cc2)n1 (stereo unspecified) has a reported inhibition of -5.4

COc1ccc2c(=O)c3c(=O)n(Cc4ccco4)c(C(C)C)nc3oc2c1 has a reported inhibition of -9.52

C=CCNC(=O)c1cc(-c2ccccc2O)on1 has a reported inhibition of 4.17

C=CCn1c(COc2ccccc2)nnc1SCC(=O)C(C)(C)C has a reported inhibition of -4.67

Cc1cc(N2CCN(c3ccccn3)CC2)n2nc(C)nc2n1 has a reported inhibition of -7

CCCCn1cnc2c(cnn2-c2ccc(Cl)cc2)c1=O has a reported inhibition of 2.91

CCOC(=O)N1CCC(NC(=O)c2ccc3c(c2)N(C)CCS3)CC1 has a reported inhibition of 4.92

CC(CCc1ccccc1)NCc1ccncc1 (stereo unspecified) has a reported inhibition of 0.48

Cc1nnc(SCC(=O)N2CCN(S(=O)(=O)c3ccccc3)CC2)[nH]c1=O has a reported inhibition of -2.9

COC(=O)c1ccccc1NC(=O)CSc1nnc(-c2ccncc2)o1 has a reported inhibition of 0.95

CCC(C)NC(=O)C1(C)CCC(=O)N1Cc1ccccc1OC (stereo unspecified) has a reported inhibition of 1.31

COc1cc(S(=O)(=O)n2nnc3ccccc32)c(OC)cc1Cl has a reported inhibition of 41.8
